# assay-explanation: viability profiling in MM1S myeloma cells – cell-based, resazurin fluorescence, basal, 24 h, PK04 Diversity Set, profiling panel (AID 1174);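 also: MM1S multiple myeloma cell line; test concentration not given here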
# condition-summary: higher = more signal, called active from +8 up or from −8 down
The source made the active and inactive calls.
The following compounds are listed with their measured z-score values.
reported-endpoint: z-score

entry_smiles=CCCC[C@H]1OB(O)C[C@H]2C1=C(COc1ccccc1)Cn1c(=O)n(-c3ccccc3)c(=O)n12 measured_result="-0.0638 (inactive)"
entry_smiles=COc1ccc(C(=O)Nc2ccc(CN3C(=O)[C@@]4(O[C@@H](CC(=O)N5Cc6ccccc6C[C@H]5CO)[C@H]([Si](C)(C)c5ccc(OC)cc5)[C@H]4C)c4ccccc43)cc2)cc1 measured_result="-1.66 (inactive)"
entry_smiles=COCCOC(=O)N1C(=O)[C@@]2(c3cc(C#CCCO)ccc31)[C@H](C(=O)N1CCc3cc(OC)c(OC)cc3C1)[C@H]1C(=O)O[C@H](c3ccccc3)[C@H](c3ccccc3)N1[C@@H]2c1ccc(OCCO)cc1 measured_result="0.665 (inactive)"
entry_smiles=CCOC(=O)C1=CC[C@@H](c2ccccc2)N(S(=O)(=O)c2ccc(C)cc2)[C@H]1C=C(C)C measured_result="-0.85 (inactive)"
entry_smiles=COc1ccc(CCNC(=O)[C@@H]2c3ccccc3C(=O)N(Cc3ccccc3)[C@H]2c2ccc(CO)cc2)cc1 measured_result="-2.71 (inactive)"
entry_smiles=COC(=O)[C@@]1(Cc2ccccc2)[C@H]2c3cc(C(=O)N4CCCC4)n(Cc4ccc(OC(F)(F)F)cc4)c3C[C@H]2CN1C(=O)c1ccccc1 measured_result="-2.46 (inactive)"
entry_smiles=C=C(/C(=C/C[C@@H](OC(C)=O)c1ccccc1OCCO)c1cnc2ccccc2c1)C(C)C measured_result="-0.601 (inactive)"
